The values you see were collected from the kinase profiling compilation of Christmann-Franck et al. (2016).

experimental_target: ADCK4 (human) (UniProt Q96D53)
Sequence (Q96D53 whole entry, looked up): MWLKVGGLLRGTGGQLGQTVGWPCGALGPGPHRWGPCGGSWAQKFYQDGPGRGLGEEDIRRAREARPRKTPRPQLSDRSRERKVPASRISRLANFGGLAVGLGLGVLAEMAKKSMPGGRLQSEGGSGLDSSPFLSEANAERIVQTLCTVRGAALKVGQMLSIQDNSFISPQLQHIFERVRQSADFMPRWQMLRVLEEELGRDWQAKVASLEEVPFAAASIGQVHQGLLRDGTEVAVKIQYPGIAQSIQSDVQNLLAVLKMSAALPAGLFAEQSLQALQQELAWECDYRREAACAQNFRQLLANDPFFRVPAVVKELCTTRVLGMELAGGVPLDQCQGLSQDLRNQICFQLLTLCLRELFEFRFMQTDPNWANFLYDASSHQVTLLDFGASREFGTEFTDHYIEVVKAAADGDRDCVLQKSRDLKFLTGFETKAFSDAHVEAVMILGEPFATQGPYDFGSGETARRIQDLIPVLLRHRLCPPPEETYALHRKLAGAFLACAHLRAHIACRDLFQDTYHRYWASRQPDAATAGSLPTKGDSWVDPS
assay_procedure: KINOMEscan competition binding
details: compound 10.0 µM
# strict inequality: kinase still bound, per cent of control < 90% yields Criterion met, everything else yields Criterion not met

Please review the following examples before continuing.
[[record]]
molecule = "COc1cc(N2CCC(C(N)=O)CC2)ccc1Nc1nc(N)c(Cl)c(Nc2ccccc2S(=O)(=O)C(C)C)n1"
classification = "Criterion met"

[[record]]
molecule = "CC1=C(C(=O)Nc2cc3cn[nH]c3cc2F)C(c2ccc(C(F)(F)F)cc2)CC(=O)N1 (centres undefined)"
classification = "Criterion not met"

[[record]]
molecule = "N#C/C(=C1/Nc2ccccc2S1)c1ccnc(NCCc2cccnc2)n1"
classification = "Criterion met"

[[record]]
molecule = "CC(=O)c1c(C)c2cnc(Nc3ccc(N4CCNCC4)cn3)nc2n(C2CCCC2)c1=O"
classification = "Criterion met"

[[record]]
molecule = "Cc1cn(-c2cc(C(=O)Nc3ccc(C)c(NC(=O)c4ccno4)c3)cc(C(F)(F)F)c2)cn1"
classification = "Criterion not met"


// query # TODO verify kinase still bound, per cent of control < 90% strictly for this molecule: COc1cc2ncnc(Nc3cccc(Cl)c3)c2cc1OC
// result Criterion met

// query Moving on to the next molecule: CCN(CCO)CCCOc1ccc2c(Nc3cc(CC(=O)Nc4cccc(F)c4)[nH]n3)ncnc2c1
// result Criterion met

// query Moving on to the next molecule: CNC(=O)Nc1ccc(-c2nc(N3CC4CCC(C3)O4)c3cnn(C4CCC5(CC4)OCCO5)c3n2)cc1
// result Criterion not met

// query Moving on to the next molecule: O=c1[nH]c2ccccc2n1C1CCN(Cc2ccc(-c3nc4cc5[nH]cnc5cc4nc3-c3ccccc3)cc2)CC1
// result Criterion not met

----------
kinase still bound, per cent of control by entry:
experimental_target: UniProt:Q13043
Sequence (Q13043 whole entry, looked up): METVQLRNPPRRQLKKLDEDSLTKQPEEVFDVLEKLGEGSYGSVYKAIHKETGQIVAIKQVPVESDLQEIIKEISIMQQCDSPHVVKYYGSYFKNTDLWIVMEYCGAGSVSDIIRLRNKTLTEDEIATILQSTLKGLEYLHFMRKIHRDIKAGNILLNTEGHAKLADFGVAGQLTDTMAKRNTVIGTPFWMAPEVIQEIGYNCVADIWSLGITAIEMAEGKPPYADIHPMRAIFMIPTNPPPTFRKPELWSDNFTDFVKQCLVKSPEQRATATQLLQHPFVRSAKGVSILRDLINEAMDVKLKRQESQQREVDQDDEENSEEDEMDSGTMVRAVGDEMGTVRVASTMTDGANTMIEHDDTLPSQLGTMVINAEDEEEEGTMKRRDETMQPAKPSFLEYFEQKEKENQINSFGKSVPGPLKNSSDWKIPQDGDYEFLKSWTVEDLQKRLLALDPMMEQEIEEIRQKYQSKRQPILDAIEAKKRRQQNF
assay_procedure: KINOMEscan competition binding
details: compound 10.0 µM
Lab note: write values as number then unit, every time.

Previously resolved entries follow.
[[record]]
compound_structure_string = "C=CC(=O)Nc1ccc(C(=O)c2sc(Nc3ccc(N4CCN(C)CC4)cc3OC)nc2N)cc1"
result = "100%"

[[record]]
compound_structure_string = "CC(=O)c1c(C)c2cnc(Nc3ccc(N4CCNCC4)cn3)nc2n(C2CCCC2)c1=O"
result = "74%"


// query Endpoint output: kinase still bound, per cent of control of O=c1[nH]c2ccccc2n1C1CCN(Cc2ccc(-c3nc4cc5[nH]cnc5cc4nc3-c3ccccc3)cc2)CC1 . Value?
// result 77%

// query Moving on to the next compound: Cc1cn(-c2cc(C(=O)Nc3ccc(C)c(NC(=O)c4ccno4)c3)cc(C(F)(F)F)c2)cn1
// result 100%

// query Moving on to the next compound: COc1ccc(N(C(=O)Oc2cc(C(=O)Nc3cccc(C(F)(F)F)c3)ccc2C)c2ccnc(Nc3ccc(N4CCN(C)CC4)cc3)n2)c(OC)c1
// result 100%

----------
experimental_target: ITK (human) (UniProt Q08881)
Sequence (Q08881 whole entry, looked up): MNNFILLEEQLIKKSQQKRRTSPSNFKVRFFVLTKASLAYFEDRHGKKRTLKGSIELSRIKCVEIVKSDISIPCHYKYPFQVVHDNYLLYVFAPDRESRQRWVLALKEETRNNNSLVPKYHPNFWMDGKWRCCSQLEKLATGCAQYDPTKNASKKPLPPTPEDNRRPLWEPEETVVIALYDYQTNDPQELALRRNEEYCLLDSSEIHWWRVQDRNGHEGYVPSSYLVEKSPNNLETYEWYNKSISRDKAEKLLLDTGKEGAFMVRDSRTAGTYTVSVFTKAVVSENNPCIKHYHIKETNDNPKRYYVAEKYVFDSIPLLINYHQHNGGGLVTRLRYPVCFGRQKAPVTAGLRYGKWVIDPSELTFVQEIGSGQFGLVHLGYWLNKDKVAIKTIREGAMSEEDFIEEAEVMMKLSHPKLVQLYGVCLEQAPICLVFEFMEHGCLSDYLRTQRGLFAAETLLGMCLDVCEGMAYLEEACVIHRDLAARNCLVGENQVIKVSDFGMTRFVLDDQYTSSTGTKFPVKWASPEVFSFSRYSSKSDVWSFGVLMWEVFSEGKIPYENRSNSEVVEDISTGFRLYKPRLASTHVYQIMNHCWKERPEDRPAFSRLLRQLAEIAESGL
assay_procedure: KINOMEscan competition binding
details: compound 10.0 µM
kinase still bound, per cent of control by entry:
Report the figure in % without appending any unit label.

Previously resolved entries follow.
[[record]]
compound = "CCCS(=O)(=O)Nc1ccc(F)c(C(=O)c2c[nH]c3ncc(Cl)cc23)c1F"
result_number = 99

[[record]]
compound = "CCN1CCN(Cc2ccc(NC(=O)c3ccc(C)c(/C=C/c4cnc5[nH]ccc5c4OC)c3)cc2C(F)(F)F)CC1"
result_number = 18

[[record]]
compound = "CNC(=O)Nc1ccc(-c2nc(N3CC4CCC(C3)O4)c3cnn(C4CCC5(CC4)OCCO5)c3n2)cc1"
result_number = 88


// query Observed kinase still bound, per cent of control on ITK (human) (UniProt Q08881) for COc1cc2c(Nc3ccc(NC(=O)c4ccccc4)cc3)ncnc2cc1OCCCN1CCOCC1 , please.
// result 100
